Study Target: human cyclin D1-CDK4 (Homo sapiens, UniProt P11802)
Sequence (P11802 whole entry): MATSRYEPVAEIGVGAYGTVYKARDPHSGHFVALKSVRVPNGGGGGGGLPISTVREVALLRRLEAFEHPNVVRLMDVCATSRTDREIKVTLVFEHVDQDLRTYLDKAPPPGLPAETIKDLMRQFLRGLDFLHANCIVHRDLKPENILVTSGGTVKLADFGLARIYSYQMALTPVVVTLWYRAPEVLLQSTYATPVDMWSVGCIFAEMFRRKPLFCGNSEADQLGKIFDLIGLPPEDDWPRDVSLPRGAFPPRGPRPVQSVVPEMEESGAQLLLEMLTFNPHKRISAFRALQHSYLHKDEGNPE
Sequence (P24385 whole entry partner): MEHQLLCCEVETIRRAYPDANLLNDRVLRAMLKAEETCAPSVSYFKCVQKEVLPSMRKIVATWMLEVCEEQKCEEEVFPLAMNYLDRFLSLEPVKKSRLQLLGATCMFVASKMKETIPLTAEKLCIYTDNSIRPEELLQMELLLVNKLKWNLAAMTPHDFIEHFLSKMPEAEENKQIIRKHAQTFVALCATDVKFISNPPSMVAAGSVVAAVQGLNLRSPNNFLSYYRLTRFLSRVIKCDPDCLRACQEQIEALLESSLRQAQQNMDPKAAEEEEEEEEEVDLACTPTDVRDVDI
Method Notes: CDK4 HTRF kinase assay (Ki measurement)
Particulars: ATP at 3x Km

{"Molecule": "COc1ccc(F)c(F)c1C(=S)c1cnc(NC2CCN(S(C)(=O)=O)CC2)nc1N [Example 1]", "Value Relation Sign": "=", "Ki (nM)": 0.17}
{"Molecule": "COc1ccc(F)cc1C(=S)c1cnc(NCCCNS(C)(=O)=O)nc1N [Example 8]", "Value Relation Sign": "=", "Ki (nM)": 37}
{"Molecule": "CS(=O)(=O)N1CCC(Nc2ncc(C(=S)c3c(F)cccc3F)c(N)n2)CC1 [Example 15]", "Value Relation Sign": "=", "Ki (nM)": 1}
{"Molecule": "COc1ccc(F)c(F)c1C(=S)c1cnc(Nc2ccc(S(N)(=O)=O)cc2)nc1N [Example 14]", "Value Relation Sign": "=", "Ki (nM)": 3}
{"Molecule": "CS(=O)(=O)N1CCC(Nc2ncc(C(=S)c3c(F)c(F)cc4ccoc34)c(N)n2)CC1 [Example 6]", "Value Relation Sign": "=", "Ki (nM)": 0.26}
{"Molecule": "COc1ccc(F)c(F)c1C(=S)c1cnc(NC2CCN(S(N)(=O)=O)CC2)nc1N [Example 4]", "Value Relation Sign": "<", "Ki (nM)": 1}
{"Molecule": "COc1ccc(F)c(F)c1C(=S)c1cnc(N[C@H]2CC[C@H](NS(C)(=O)=O)CC2)nc1N [Example 2]", "Value Relation Sign": "=", "Ki (nM)": 0.6}
{"Molecule": "COc1ccc(F)c(F)c1C(=S)c1cnc(N[C@H]2CC[C@H](N(C)S(C)(=O)=O)CC2)nc1N [Example 3]", "Value Relation Sign": "=", "Ki (nM)": 1.33}
{"Molecule": "COc1ccc(F)c(F)c1C(=S)c1cnc(Nc2ccc(S(C)(=O)=O)cc2)nc1N [Example 12]", "Value Relation Sign": "=", "Ki (nM)": 7}
{"Molecule": "CS(=O)(=O)N1CCC(Nc2ncc(C(=S)c3c(Cl)ccc(F)c3F)c(N)n2)CC1 [Example 13]", "Value Relation Sign": "=", "Ki (nM)": 3}
{"Molecule": "CS(=O)(=O)N1CCC(Nc2ncc(C(=S)c3c(F)c(F)cc4ncoc34)c(N)n2)CC1 [Example 7]", "Value Relation Sign": "=", "Ki (nM)": 5}
{"Molecule": "CS(=O)(=O)N1CCC(Nc2ncc(C(=S)c3cccs3)c(N)n2)CC1 [Example 11]", "Value Relation Sign": "=", "Ki (nM)": 10}
{"Molecule": "COc1ccc(F)c(F)c1C(=S)c1cnc(NC2CCN(S(C)(=O)=O)C2)nc1N (stereo not drawn) [Example 18]", "Value Relation Sign": "=", "Ki (nM)": 2.8}
{"Molecule": "COc1ccc(F)cc1C(=S)c1cnc(NC2CCN(S(C)(=O)=O)CC2)nc1N [Example 5]", "Value Relation Sign": "=", "Ki (nM)": 1.3}
{"Molecule": "CS(=O)(=O)N1CCC(Nc2ncc(C(=S)c3ccccc3)c(N)n2)CC1 [Example 16]", "Value Relation Sign": "=", "Ki (nM)": 15}

---

pKi: −log10 of the molar value.
Recorded below: pKi, system human cyclin B-CDK1 (Homo sapiens, UniProt P06493).

{"Smiles Record": "COc1ccc(F)c(F)c1C(=S)c1cnc(NC2CCN(S(=O)(=O)c3ccccn3)CC2)nc1N", "Study Target": "human cyclin B-CDK1 (Homo sapiens, UniProt P06493)", "pKi": 8.52}
{"Smiles Record": "CS(=O)(=O)N1CCC(Nc2ncc(C(=S)c3c(F)c(F)cc4ncoc34)c(N)n2)CC1", "Study Target": "human cyclin B-CDK1 (Homo sapiens, UniProt P06493)", "pKi": 8.22}
{"Smiles Record": "COc1ccc(F)c(F)c1C(=S)c1cnc(Nc2ccc(S(N)(=O)=O)cc2)nc1N", "Study Target": "human cyclin B-CDK1 (Homo sapiens, UniProt P06493)", "pKi": 8.52}
{"Smiles Record": "COc1ccc(F)cc1C(=S)c1cnc(NCCCNS(C)(=O)=O)nc1N", "Study Target": "human cyclin B-CDK1 (Homo sapiens, UniProt P06493)", "pKi": 7.05}
{"Smiles Record": "CS(=O)(=O)N1CCC(Nc2ncc(C(=S)c3c(F)c(F)cc4ccoc34)c(N)n2)CC1", "Study Target": "human cyclin B-CDK1 (Homo sapiens, UniProt P06493)", "pKi": 8.52}
{"Smiles Record": "COc1ccc(F)c(F)c1C(=S)c1cnc(N[C@H]2CC[C@H](N(C)S(C)(=O)=O)CC2)nc1N", "Study Target": "human cyclin B-CDK1 (Homo sapiens, UniProt P06493)", "pKi": 9.38}
{"Smiles Record": "COc1ccc(F)cc1C(=S)c1cnc(NC2CCN(C(=O)OC(C)(C)C)CC2)nc1N", "Study Target": "human cyclin B-CDK1 (Homo sapiens, UniProt P06493)", "pKi": 6.58}
